# reported.conditions: human
experimental.endpoint: Hepatotoxicity (cytolytic)

{"molecule": "CC[C@@H](CO)NCCN[C@@H](CC)CO", "experimental.endpoint": "Hepatotoxicity (cytolytic)", "reading": 1}
{"molecule": "CC(c1cc2ccccc2s1)N(O)C(N)=O (stereo not drawn)", "experimental.endpoint": "Hepatotoxicity (cytolytic)", "reading": 1}
{"molecule": "CC[C@H]1OC(=O)[C@H](C)[C@@H](O[C@H]2C[C@@](C)(OC)[C@@H](O)[C@H](C)O2)[C@H](C)[C@@H](O[C@@H]2O[C@H](C)C[C@H](N(C)C)[C@H]2O)[C@](C)(O)C[C@@H](C)[C@@H]2N[C@@H](COCCOC)O[C@H]([C@H]2C)[C@]1(C)O", "experimental.endpoint": "Hepatotoxicity (cytolytic)", "reading": 0}
{"molecule": "CCN(CCCc1ccccc1)CCCc1ccccc1", "experimental.endpoint": "Hepatotoxicity (cytolytic)", "reading": 2}
{"molecule": "CC(C)NCC(O)COc1cccc2ccccc12 (stereo not drawn)", "experimental.endpoint": "Hepatotoxicity (cytolytic)", "reading": 4}
{"molecule": "O=C1CC2(CCCC2)CC(=O)N1CCCCN1CCN(c2ncccn2)CC1", "experimental.endpoint": "Hepatotoxicity (cytolytic)", "reading": 1}
{"molecule": "CCc1cccc2c3c([nH]c12)C(CC)(CC(=O)O)OCC3 (stereo not drawn)", "experimental.endpoint": "Hepatotoxicity (cytolytic)", "reading": 2}
{"molecule": "CN1CCN(CCCN2c3ccccc3Sc3ccc(C(F)(F)F)cc32)CC1", "experimental.endpoint": "Hepatotoxicity (cytolytic)", "reading": 0}

* * *

# reported.conditions: human
Hepatotoxicity (choleostasis) for assorted compounds
experimental.endpoint: Hepatotoxicity (choleostasis)

{"compound": "CCC[C@@H]1C[C@@H](C(=O)N[C@@H]([C@H]2O[C@H](SC)[C@H](O)[C@@H](O)[C@H]2O)[C@@H](C)O)N(C)C1", "experimental.endpoint": "Hepatotoxicity (choleostasis)", "reading": 0}
{"compound": "NC(CO)C(=O)NNCc1ccc(O)c(O)c1O (centres undefined) [BENSERAZIDE]", "experimental.endpoint": "Hepatotoxicity (choleostasis)", "reading": 0}
{"compound": "N[C@@H](Cc1ccc(N(CCCl)CCCl)cc1)C(=O)O", "experimental.endpoint": "Hepatotoxicity (choleostasis)", "reading": 1}
{"compound": "CCOC(=O)[C@H](CCc1ccccc1)N[C@@H](C)C(=O)N1Cc2ccccc2C[C@H]1C(=O)O", "experimental.endpoint": "Hepatotoxicity (choleostasis)", "reading": 0}
{"compound": "CC(=O)[C@@]1(O)CC[C@H]2[C@@H]3C=C(Cl)C4=CC(=O)[C@@H]5C[C@@H]5[C@]4(C)[C@H]3CC[C@@]21C", "experimental.endpoint": "Hepatotoxicity (choleostasis)", "reading": 3}
{"compound": "CC(C)NNC(=O)COc1ccc(Cl)cc1 [IPROCLOZIDE]", "experimental.endpoint": "Hepatotoxicity (choleostasis)", "reading": 1}
{"compound": "OCC(Br)(Br)Br", "experimental.endpoint": "Hepatotoxicity (choleostasis)", "reading": 0}
{"compound": "O=c1[nH]c2ccccc2n1CCCN1CCC(n2c(=O)[nH]c3cc(Cl)ccc32)CC1", "experimental.endpoint": "Hepatotoxicity (choleostasis)", "reading": 0}
{"compound": "CC(C)(C)c1ccc(C(O)CCCN2CCC(C(O)(c3ccccc3)c3ccccc3)CC2)cc1 (centres undefined)", "experimental.endpoint": "Hepatotoxicity (choleostasis)", "reading": 2}
